Tested on: PIM1
Conditions Used: concentration: 1 μM, replicates: in singlicate; n = 1;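 note: KINOMEscan kinase panel screen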
Kindly state %Inh for each of the entries shown.

Below, each entry is followed by its recorded %Inh result.
Cc1ccc(NC(=O)Nc2ccccc2)cc1-c1ccc(C(=O)Nc2ccncc2)cc1 = 9%
CN1c2ccc(-c3ccc(C(N)=O)cc3)cc2-c2[nH]ncc2S1(=O)=O = 9%

Below are 8 molecules. Give each one its %Inh.
1. Fc1ccc(-c2nn3cccc(F)c3c2-c2ccncc2)cc1
2. COc1ccc(Nc2nccc(N3CCC(NC(=O)C(C)c4ccc(Cl)cc4)CC3)n2)cc1 (stereo not shown)
3. Cc1c(Cn2c(C)c(C)n3c(=O)cc(N4CCOCC4)nc23)cccc1C(F)(F)F
4. Cc1ccc(NC(=O)Nc2ccc(Cl)cc2)cc1-c1ccc(C(=O)Nc2ccncc2)cc1
5. CNc1nc(-c2ccc3c(N)n[nH]c3c2)cc(N2C[C@@H](C(=O)NC3CCCCC3)OC[C@H]2C)n1
6. CS(=O)(=O)Cc1ccc(Nc2nccc(-c3c(-c4cccc(NC(=O)C5CCCCC5)c4)nn4ncccc34)n2)cc1
7. COc1ccc(CSc2nnc(-c3ccc4c(c3)CCO4)o2)cc1
8. COC(=O)C(Cc1ccccc1)NC(=O)NC1CCN(c2ccnc(Nc3ccc(F)cc3)n2)C1 (stereo not shown)

Result:
1: 0%; 2: 0%; 3: 1%; 4: 9%; 5: 11%; 6: 12%; 7: 0%; 8: 0%

----------
Test system: FLT3-autoinhibited
Conditions Used: concentration: 1 μM, replicates: in singlicate; n = 1
Reported Endpoint: %Inh
Answer format: value, then unit.

Below are 2 molecules. Give each one its %Inh.
1. Nc1nccc(-c2c(-c3ccc(F)cc3)ncn2C2CCN(Cc3ccccc3)CC2)n1
2. Cc1ccc(NC(=O)Nc2ccccc2)cc1-c1ccc(C(=O)Nc2ccncc2)cc1

Result:
1: 18%; 2: 0%

Below are 6 molecules. Give each one its %Inh.
1. CC(C)c1ccc(O)cc1Nc1ccnc2ccc(C(F)(F)F)cc12
2. COC(=O)c1cccc(NC(=O)NC2CCN(c3ccnc(Nc4ccc(F)cc4)n3)C2)c1 (centres unmarked)
3. COC(=O)c1cccc(NC(=O)NC2CCN(c3ccnc(Nc4ccc(OC)cc4)n3)C2)c1 (centres unmarked)
4. CNCc1ccc2nc(NC(=O)c3ccc(C(C)(C)C)cc3)cn2c1
5. CC(=O)c1c(C)c2cnc(Nc3ccn(C)n3)nc2n(C2CCCC2)c1=O
6. Nc1cccc(-c2ccc3c(N)n[nH]c3c2)n1

Result:
1. 9%
2. 0%
3. 0%
4. 19%
5. 2%
6. 13%

----------
Kindly state %Inh for each of the entries shown.
Tested on: TXK
Conditions Used: concentration: 1 μM, replicates: in singlicate; n = 1
Numbers only, in %.

Below, each entry is followed by its recorded %Inh result.
COc1cccc(CNC(=O)NC2CCN(c3ccnc(Nc4ccc(F)cc4)n3)C2)c1 (stereo not shown) = 100
Nc1nccc(-c2c(-c3ccc(F)cc3)ncn2C2CCN(Cc3ccccc3)CC2)n1 = 0
c1ccc(-c2ccnc3[nH]ccc23)cc1 = 28
O=C(Nc1n[nH]c2nc(-c3cccs3)c(Br)cc12)C1CC1 = 22
CS(=O)(=O)CCNCc1nc(-c2ccc3ncnc(Nc4ccc(OCc5ccccc5)c(Cl)c4)c3c2)cs1.Cl = 6
COc1cccc(NC(=O)Nc2ccc(C)c(-c3ccc(C(=O)Nc4ccncc4)cc3)c2)c1 = 0
O=c1cc(N2CCOCC2)nc2n(Cc3cccc(Cl)c3Cl)c3ccccc3n12 = 0
CC(C)c1cc(-c2ccc3c(N)n[nH]c3c2)nc(N)n1 = 0
Cc1nccc(-c2c(-c3ccc(F)cc3)ncn2CCCN2CCOCC2)n1.Cl = 31
CC(=O)c1c(C)c2cnc(Nc3ccc(N4CCNCC4)cn3)nc2n(C2CCCC2)c1=O = 5

Below are 3 compounds. Give each one its %Inh.
1. CN1c2ccc(-c3ccc(C(N)=O)cc3)cc2-c2[nH]ncc2S1(=O)=O
2. COc1cccc(C2=C(Nc3cc(Cl)c(O)c(Cl)c3)C(=O)NC2=O)c1
3. CNCc1ccc2nc(NC(=O)c3ccc(C(C)(C)C)cc3)cn2c1

Result:
1: 0; 2: 15; 3: 8
